Origin of measurements: patent US9457007B2

The compounds listed here are annotated with their water intake.
System: STZ-induced diabetic mice
Assay: Water intake of the diabetic mice
Format: in vivo
Conditions: propolins study; at 6 weeks

Here's what some known entries look like.
> print(dat)
                                   compound  attribute.measured         result
1  CC(C)=CCC/C(C)=C/Cc1cc([C@@H]2CC(=O)c3c(O)cc(O)cc3O2)cc(O)c1O [PPF]        water intake  13.0 mL/mouse
2  CC(C)=CCC/C(C)=C/Cc1c([C@@H]2CC(=O)c3c(cc(O)c(CC=C(C)C)c3O)O2)ccc(O)c1O [PPG]        water intake   9.0 mL/mouse
3  CC(C)=CCC/C(C)=C/Cc1c(O)cc2c(c1O)C(=O)C[C@@H](c1ccc(O)c(O)c1)O2 [PPC]        water intake  16.0 mL/mouse

Give water intake only, for CC(C)=CCC/C(C)=C/Cc1c([C@@H]2CC(=O)c3c(O)cc(O)cc3O2)ccc(O)c1O [PPD] , using STZ-induced diabetic mice data.
14.0 mL/mouse

Give water intake only, for N[C@@H](CC(=O)N1CCn2c(nnc2C(F)(F)F)C1)Cc1cc(F)c(F)cc1F [DPP4I, Sitagliptin, reference compound] , using STZ-induced diabetic mice data.
12.0 mL/mouse

###

System: STZ-induced diabetic mice
Experiment: Blood glucose in the STZ-induced diabetic mice
Format: in vivo
Conditions: propolins study; after administration for 8 weeks by gavage daily; PPC 9.0, PPD 6.75, PPF 4.5, PPG 4.5, Januvia 370 mg/kg/mouse
Protocol: The male FBV mice of 5 weeks old, commercially available from BioLASCO Co., Ilan, Taiwan, were acclimatized for 1 week, prior to administration of streptozotocin (STZ) at 40 mg/kg for 3 consecutive days. […] After allowing the mice to rest for 10 days, blood glucose levels were measured. […] After 1 week, blood glucose was detected once more, and whether blood glucose was smooth or not was evaluated prior to grouping. […]
attribute-measured: blood glucose
Remember to quote the unit after the number.

> print(dat)
                                   compound         measurement.target     result
1  CC(C)=CCC/C(C)=C/Cc1c([C@@H]2CC(=O)c3c(cc(O)c(CC=C(C)C)c3O)O2)ccc(O)c1O  STZ-induced diabetic mice  298 mg/dL
2  CC(C)=CCC/C(C)=C/Cc1cc([C@@H]2CC(=O)c3c(O)cc(O)cc3O2)cc(O)c1O  STZ-induced diabetic mice  398 mg/dL
3  CC(C)=CCC/C(C)=C/Cc1c(O)cc2c(c1O)C(=O)C[C@@H](c1ccc(O)c(O)c1)O2  STZ-induced diabetic mice  298 mg/dL
4  N[C@@H](CC(=O)N1CCn2c(nnc2C(F)(F)F)C1)Cc1cc(F)c(F)cc1F [DPP4I, Sitagliptin, reference compound]  STZ-induced diabetic mice  330 mg/dL

Hello, please tell me recorded blood glucose for this one: `CC(C)=CCC/C(C)=C/Cc1c([C@@H]2CC(=O)c3c(O)cc(O)cc3O2)ccc(O)c1O`
400 mg/dL

###

System: STZ-induced diabetic mice
Assay: Water intake of the diabetic mice
Assay type: in vivo
Conditions: propolins study; at 8 weeks
The molecules listed here are annotated with their water intake.
The response must be a number in mL/mouse with no trailing unit.

> print(dat)
                                   molecule         measurement.target  attribute.measured  recorded.number
1  CC(C)=CCC/C(C)=C/Cc1c([C@@H]2CC(=O)c3c(cc(O)c(CC=C(C)C)c3O)O2)ccc(O)c1O  STZ-induced diabetic mice        water intake              9.0
2  CC(C)=CCC/C(C)=C/Cc1c(O)cc2c(c1O)C(=O)C[C@@H](c1ccc(O)c(O)c1)O2  STZ-induced diabetic mice        water intake             24.0
3  CC(C)=CCC/C(C)=C/Cc1cc([C@@H]2CC(=O)c3c(O)cc(O)cc3O2)cc(O)c1O  STZ-induced diabetic mice        water intake             10.0
4  CC(C)=CCC/C(C)=C/Cc1c([C@@H]2CC(=O)c3c(O)cc(O)cc3O2)ccc(O)c1O  STZ-induced diabetic mice        water intake             16.0

Shift focus to the following entry.
Hello, please tell me recorded water intake for this one: N[C@@H](CC(=O)N1CCn2c(nnc2C(F)(F)F)C1)Cc1cc(F)c(F)cc1F [DPP4I, Sitagliptin, reference compound]
12.5

###

Tested on: STZ-induced diabetic mice
Test: Feedstuff intake of the diabetic mice
Format: in vivo
Settings: propolins study; at 8 weeks
The compounds listed here are annotated with their feedstuff intake.
The response must be a number in g/mouse with no trailing unit.

> print(dat)
                                   compound  attribute.measured  unit.of.measure  recorded.number
1  CC(C)=CCC/C(C)=C/Cc1c(O)cc2c(c1O)C(=O)C[C@@H](c1ccc(O)c(O)c1)O2 [PPC]    feedstuff intake          g/mouse              7.9
2  CC(C)=CCC/C(C)=C/Cc1cc([C@@H]2CC(=O)c3c(O)cc(O)cc3O2)cc(O)c1O [PPF]    feedstuff intake          g/mouse              6.3
3  CC(C)=CCC/C(C)=C/Cc1c([C@@H]2CC(=O)c3c(O)cc(O)cc3O2)ccc(O)c1O [PPD]    feedstuff intake          g/mouse              7.2
4  N[C@@H](CC(=O)N1CCn2c(nnc2C(F)(F)F)C1)Cc1cc(F)c(F)cc1F [DPP4I, Sitagliptin, reference compound]    feedstuff intake          g/mouse              6.4

Give feedstuff intake only, for CC(C)=CCC/C(C)=C/Cc1c([C@@H]2CC(=O)c3c(cc(O)c(CC=C(C)C)c3O)O2)ccc(O)c1O [PPG] , using STZ-induced diabetic mice data.
7.2
